Values from patent US6750217B2

So I've got a bunch of compounds here, and I need their IC50 values.
# TARGET: GST-MEK (p45MEK) / GST-MAPK (p44MAP kinase) (Homo sapiens)
# Sequence (Q02750 whole entry): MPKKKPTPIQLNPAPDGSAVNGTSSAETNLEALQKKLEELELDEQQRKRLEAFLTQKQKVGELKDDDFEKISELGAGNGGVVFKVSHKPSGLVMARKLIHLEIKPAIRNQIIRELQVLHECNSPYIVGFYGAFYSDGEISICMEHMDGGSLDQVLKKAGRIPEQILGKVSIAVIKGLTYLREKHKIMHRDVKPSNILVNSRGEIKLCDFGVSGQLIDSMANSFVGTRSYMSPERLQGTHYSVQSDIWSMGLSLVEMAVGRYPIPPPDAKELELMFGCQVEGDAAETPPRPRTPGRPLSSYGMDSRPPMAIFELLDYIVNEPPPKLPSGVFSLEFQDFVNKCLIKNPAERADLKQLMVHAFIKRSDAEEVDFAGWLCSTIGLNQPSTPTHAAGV
# PROTOCOL NOTES: APK IC50; cascade assay for inhibitors of the MAP kinase pathway
Numeric only. Scale: nM

Entry NS(=O)(=O)c1cc(C(=O)NOCC2CC2)c(Nc2ccc(I)cc2Cl)c(F)c1F ; IC50 = 186

Entry Cc1cc(I)ccc1Nc1c(C(=O)O)cc(S(=O)(=O)N(C)C)c(F)c1F ; IC50 = 441

* * *

So I've got a bunch of compounds here, and I need their melting point values.

Entry NS(=O)(=O)c1cc(C(=O)O)c(Nc2ccc(I)cc2Cl)c(F)c1F ; melting point = 295 to 296 °C (dec.)

Entry CN(C)S(=O)(=O)c1cc(C(=O)NOCC2CC2)c(Nc2ccc(I)cc2Cl)c(F)c1F ; melting point = 222 to 225 °C (dec.)

Entry NS(=O)(=O)c1cc(C(=O)NOCC2CC2)c(Nc2ccc(I)cc2Cl)c(F)c1F ; melting point = 219 to 227 °C (dec.)

Entry Cc1cc(I)ccc1Nc1c(C(=O)NOCC2CC2)cc(S(=O)(=O)N(C)C)c(F)c1F ; melting point = 171 to 172 °C

Entry NS(=O)(=O)c1cc(C(=O)NO)c(Nc2ccc(I)cc2Cl)c(F)c1F ; melting point = 230 to 236 °C (dec.)

* * *

So I've got a bunch of compounds here, and I need their pIC50 values.
# TARGET: GST-MEK (p45MEK) / GST-MAPK (p44MAP kinase) (Homo sapiens)
# PROTOCOL NOTES: APK IC50; cascade assay for inhibitors of the MAP kinase pathway
# Type: biochemical
The read-out pIC50 is expressed as -log10 of concentration in moles per litre.

Entry CN(C)S(=O)(=O)c1cc(C(=O)NOCC2CC2)c(Nc2ccc(I)cc2Cl)c(F)c1F ; pIC50 = 6.03

Entry Cc1cc(I)ccc1Nc1c(C(=O)NOCC2CC2)cc(S(=O)(=O)N(C)C)c(F)c1F ; pIC50 = 5.43

Entry COC(=O)c1cc(S(=O)(=O)N(C)C)c(F)c(F)c1Nc1ccc(I)cc1Cl ; pIC50 = 6.65

Entry CN(C)S(=O)(=O)c1cc(C(=O)O)c(Nc2ccc(I)cc2Cl)c(F)c1F ; pIC50 = 6.55

Entry NS(=O)(=O)c1cc(C(=O)O)c(Nc2ccc(I)cc2Cl)c(F)c1F ; pIC50 = 6.11

Entry NS(=O)(=O)c1cc(C(=O)NO)c(Nc2ccc(I)cc2Cl)c(F)c1F ; pIC50 = 6.91
